Biological target: human GPR120 (Homo sapiens, UniProt Q5NUL3)
Sequence (Q5NUL3 1-361): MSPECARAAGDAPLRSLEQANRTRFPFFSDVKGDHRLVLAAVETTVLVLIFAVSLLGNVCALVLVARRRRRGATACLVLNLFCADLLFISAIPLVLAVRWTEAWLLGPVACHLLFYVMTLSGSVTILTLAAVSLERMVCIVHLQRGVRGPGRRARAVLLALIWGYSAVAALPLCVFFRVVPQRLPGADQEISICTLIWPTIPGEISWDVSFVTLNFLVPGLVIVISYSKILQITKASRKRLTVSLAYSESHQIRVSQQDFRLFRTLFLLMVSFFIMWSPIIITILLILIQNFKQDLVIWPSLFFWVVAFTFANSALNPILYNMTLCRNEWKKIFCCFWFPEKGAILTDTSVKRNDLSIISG
Assay: Human GPR120 IP1 assay (inositol phosphate turnover)
Settings: IP1 accumulation in CHO-K1 cells stably expressing the short form of human GPR120
Where a name gives a salt, the structure may show the parent alone.
Give measured pEC50 for each item. Keep answers brief.
pEC50 here: minus log base 10 of the concentration, concentration in moles per litre.

Reported pEC50 ( Oc1cc(-c2ccc(OC3CC(c4ccccc4)C3)nc2)on1 (stereo not shown) [Example 36, trifluoroacetate] ) = 7.39

Reported pEC50 ( Cc1cc(O[C@H]2C[C@@H](Oc3cnc(-c4cc(O)no4)cn3)C2)ccc1F [Example 71] ) = 7.42

Reported pEC50 ( CC1(c2ccc(Cl)cc2)CC(Oc2cnc(-c3cc(O)no3)cn2)C1 (stereo not shown) [Example 93] ) = 6.67

Reported pEC50 ( Oc1cc(-c2cnc(O[C@H]3C[C@@H](c4ccc(OC5CC5)cc4)C3)cn2)on1 [Example 4] ) = 7.08

Reported pEC50 ( Oc1cc(-c2cnc(O[C@H]3C[C@@H](c4ccc(F)cc4)C3)cn2)on1 [Example 10] ) = 7.47

Reported pEC50 ( Oc1cc(-c2cnc(O[C@H]3C[C@@H](c4cc(F)c(Cl)c(F)c4)C3)cn2)on1 [Example 52] ) = 7.55

Reported pEC50 ( COc1cc(OC)cc([C@H]2C[C@@H](Oc3cnc(-c4cc(O)no4)cn3)C2)c1 [Example 54] ) = 7.00

Reported pEC50 ( Oc1cc(-c2cnc(O[C@H]3C[C@H](c4ccnc(OC5CC5)c4)C3)cn2)on1 [Example 33] ) = 6.49

Reported pEC50 ( Oc1cc(-c2cnc(O[C@H]3C[C@@H](Oc4cccc(C(F)(F)F)c4)C3)cn2)on1 [Example 66] ) = 7.43

Reported pEC50 ( Oc1cc(-c2cnc(OC3CC(OCc4cc(C(F)(F)F)ccc4F)C3)cn2)on1 (mixture of isomers) [Example 79] ) = 7.89

Reported pEC50 ( Oc1cc(-c2ccc(O[C@H]3C[C@](F)(c4ccnc(OC5CC5)c4)C3)nc2)on1 [Example 90] ) = 7.66

Reported pEC50 ( Oc1cc(-c2ccc(OC3CCC(c4cccc(OC(F)(F)F)c4)C3)nc2)on1 (single isomer, unassigned) [Example 117, trifluoroacetate] ) = 7.23

Reported pEC50 ( Cc1ccc([C@H]2C[C@@H](Oc3cnc(-c4cc(O)no4)cn3)C2)c(F)c1 [Example 48] ) = 7.62

Reported pEC50 ( Oc1cc(-c2cnc(O[C@H]3C[C@@H](COc4ccccc4)C3)cn2)on1 [Example 83] ) = 7.77

Reported pEC50 ( Oc1cc(-c2ccc(O[C@H]3C[C@@H](c4ccnc(C(F)(F)F)c4)C3)nc2)on1 [Example 21] ) = 6.60

Reported pEC50 ( Oc1cc(-c2cnc(O[C@H]3C[C@@H](c4ccc(-c5ccc(C(F)(F)F)nc5)cc4)C3)cn2)on1 [Example 18] ) = 6.87

* * *

Give measured EC50 for each item. Keep answers brief.
Molecular target: human GPR120 (Homo sapiens, UniProt Q5NUL3)
Experiment: Human GPR120 IP1 assay (inositol phosphate turnover)
Settings: IP1 accumulation in CHO-K1 cells stably expressing the short form of human GPR120
Write the value in nM as a bare number.

I looked up `CCc1ccc([C@H]2C[C@@H](Oc3ccc(-c4cc(O)no4)cn3)C2)cc1` and its EC50 for human GPR120 (Homo sapiens, UniProt Q5NUL3) was 19

I looked up `Oc1cc(-c2cnc(O[C@H]3C[C@@H](COc4ccccc4F)C3)cn2)on1` and its EC50 for human GPR120 (Homo sapiens, UniProt Q5NUL3) was 25

I looked up `Oc1cc(-c2cnc(O[C@H]3C[C@@H](c4ccc(OC(F)F)cc4)C3)cn2)on1` and its EC50 for human GPR120 (Homo sapiens, UniProt Q5NUL3) was 104

I looked up `Cc1ccc([C@H]2C[C@H](Oc3cnc(-c4cc(O)no4)cn3)C2)c(F)c1` and its EC50 for human GPR120 (Homo sapiens, UniProt Q5NUL3) was 104

* * *

Target: human GPR120 (Homo sapiens)
Test: Human GPR120 IP1 assay (inositol phosphate turnover)
Details: IP1 accumulation in CHO-K1 cells stably expressing the short form of human GPR120
Endpoint name: EC50 (nM)
Write the value in nM as a bare number.

I looked up Oc1cc(-c2cnc(OC3CC(c4ccc5c(c4)OC(F)(F)O5)C3)nc2)on1 (centres unmarked) and its EC50 for human GPR120 (Homo sapiens) was 41

I looked up `Oc1cc(-c2cnc(O[C@H]3C[C@H](c4ccc(OC5CC5)cc4)C3)cn2)on1` and its EC50 for human GPR120 (Homo sapiens) was 13

I looked up Oc1cc(-c2cnc(OC3CC(OCC4CCCCC4)C3)cn2)on1 (mixture of isomers) and its EC50 for human GPR120 (Homo sapiens) was 23

I looked up `Oc1cc(-c2cnc(O[C@H]3C[C@](F)(c4cc(OC(F)(F)F)ccc4F)C3)cn2)on1` and its EC50 for human GPR120 (Homo sapiens) was 91

I looked up `Oc1cc(-c2cnc(O[C@H]3C[C@@H](c4ccc(C(F)F)cc4)C3)cn2)on1` and its EC50 for human GPR120 (Homo sapiens) was 8

I looked up `Oc1cc(-c2cnc(O[C@H]3C[C@@H](c4cc(F)c(OC(F)F)c(F)c4)C3)cn2)on1` and its EC50 for human GPR120 (Homo sapiens) was 14

I looked up `CC(C)Oc1cc([C@]2(F)C[C@@H](Oc3cnc(-c4cc(O)no4)cn3)C2)ccn1` and its EC50 for human GPR120 (Homo sapiens) was 153

I looked up `Oc1cc(-c2cnc(O[C@H]3C[C@@H](c4ccc(-c5cc(F)ccn5)cc4)C3)cn2)on1` and its EC50 for human GPR120 (Homo sapiens) was 86

* * *

Give measured EC50 for each item. Keep answers brief.
Molecular target: rat GPR120 (Rattus norvegicus, UniProt Q2AC31)
Sequence (Q2AC31 whole entry): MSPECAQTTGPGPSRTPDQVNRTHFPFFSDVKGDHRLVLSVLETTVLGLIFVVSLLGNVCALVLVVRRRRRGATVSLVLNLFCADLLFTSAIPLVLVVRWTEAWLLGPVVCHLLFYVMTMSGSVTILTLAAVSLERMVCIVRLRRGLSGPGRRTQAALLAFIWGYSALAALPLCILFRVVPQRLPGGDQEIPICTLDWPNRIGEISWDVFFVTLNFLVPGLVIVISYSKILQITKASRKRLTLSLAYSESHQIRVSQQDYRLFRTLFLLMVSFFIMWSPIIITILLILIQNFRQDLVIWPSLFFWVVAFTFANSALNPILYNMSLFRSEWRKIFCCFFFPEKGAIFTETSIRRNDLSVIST
Assay: Rat GPR120 IP1 assay (inositol phosphate turnover)
Settings: IP1 accumulation in HEK293 cells stably expressing rat GPR120
Counter-ions that a name gives are not always drawn.
Write the value in nM as a bare number.

Reported EC50 ( Oc1cc(-c2ccc(O[C@H]3C[C@@](F)(c4ccnc(OC5CCC5)c4)C3)nc2)on1 [Example 88] ) = 42.2

Reported EC50 ( Oc1cc(-c2ccc(O[C@H]3C[C@@H](c4ccc(Cl)cc4)C3)cn2)on1 [Example 111, trifluoroacetate] ) = 0.8

Reported EC50 ( CCOc1cc([C@]2(F)C[C@@H](Oc3cnc(-c4cc(O)no4)cn3)C2)ccn1 [Example 94] ) = 890

Reported EC50 ( Oc1cc(-c2cnc(O[C@H]3C[C@@](F)(c4nc(C(F)(F)F)cs4)C3)cn2)on1 [Example 102] ) = 1160

Reported EC50 ( Oc1cc(-c2ccc(O[C@H]3C[C@](F)(c4ccnc(OC5CCC5)c4)C3)nc2)on1 [Example 87] ) = 4.7

* * *

Give measured pEC50 for each item. Keep answers brief.
Target: UniProt Q2AC31
Test: Rat GPR120 IP1 assay (inositol phosphate turnover)
Settings: IP1 accumulation in HEK293 cells stably expressing rat GPR120
Counter-ions that a name gives are not always drawn.
pEC50 here: minus log base 10 of the concentration, concentration in moles per litre.

Reported pEC50 ( `Oc1cc(-c2ccc(O[C@H]3C[C@H](c4ccc(F)cc4)C3)cc2)on1` ) = 8.82

Reported pEC50 ( `Oc1cc(-c2cnc(O[C@H]3C[C@](F)(c4ccnc(OC5CCC5)c4)C3)cn2)on1` ) = 7.48

Reported pEC50 ( `Oc1cc(-c2ccc(O[C@H]3C[C@H](c4ccc(C(F)(F)F)cn4)C3)nc2)on1` ) = 7.00

Reported pEC50 ( `Oc1cc(-c2cnc(O[C@H]3C[C@@](F)(c4ccnc(OC5CCC5)c4)C3)cn2)on1` ) = 7.74

Reported pEC50 ( `Oc1cc(-c2cnc(O[C@H]3C[C@H](c4ccc(Cl)cc4)C3)nc2)on1` ) = 8.24

Reported pEC50 ( `Oc1cc(-c2cnc(O[C@H]3C[C@H](Oc4cccc(OC(F)(F)F)c4)C3)cn2)on1` ) = 8.74

Reported pEC50 ( `Oc1cc(-c2cnc(O[C@H]3C[C@](F)(c4ccnc(OC5CC5)c4)C3)cn2)on1` ) = 7.44

Reported pEC50 ( Oc1cc(-c2ccc(O[C@H]3C[C@H](c4ccc(Cl)cc4)C3)cn2)on1 [Example 110, trifluoroacetate] ) = 8.96
